# target or test system: GST-PAR3L PDZ domain 3 fusion protein (human), Q8TEW8
# Sequence (Q8TEW8 other isoform, or with tags, fused parts or gaps): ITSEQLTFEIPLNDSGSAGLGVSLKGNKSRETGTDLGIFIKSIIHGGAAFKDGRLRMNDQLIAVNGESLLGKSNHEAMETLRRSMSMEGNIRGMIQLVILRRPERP
# test: G3 assay titration, immobilised GST-PDZ
No end group written: not given here.
observable: EC50
Kindly format the answer as number then unit.

EC50 for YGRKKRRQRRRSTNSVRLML (not fully specified) is 100 nM
